Target: feline FcRn complex (FcRn-α subunit and β-microglobulin), biotin labeled (feline)
Assay: SPR, pH 6
assay_readout: pKd
Quick note: pKd values are minus log10 of concentrations in mol/L.

Exercise: Can you look up the measured pKd of feline IgG1a T250V (antibody, part only; not given: Variable domains, not shown: another chain or arm of the molecule) constant: ASTTAPSVFPLAPSCGTTSGATVALACLVLGYFPEPVTVSWNSGALTSGVHTFPAVLQASGLYSLSSMVTVPSSRWLSDTFTCNVAHPPSNTKVDKTVRKTDHPPGPKPCDCPKCPPPEMLGGPSIFIFPPKPKDVLSISRTPEVTCLVVDLGPDDSDVQITWFVDNTQVYTAKTSPREEQFNSTYRVVSVLPILHQDWLKGKEFKCKVNSKSLPSPIERTISKAKGQPHEPQVYVLPPAQEELSRNKVSVTCLIKSFHPPDIAVEWEITGQPEPENNYRTTPPQLDSDGTYFVYSKLSVDRSHWQRGNTYTCSVSHEALHSHHTQKSLTQSPGK for me?
Key: 8.16
